Listing of recorded apparent Kd (screen) by entry.
target-system: T1, TNFR1 (Homo sapiens, UniProt P19438)
T1 chain: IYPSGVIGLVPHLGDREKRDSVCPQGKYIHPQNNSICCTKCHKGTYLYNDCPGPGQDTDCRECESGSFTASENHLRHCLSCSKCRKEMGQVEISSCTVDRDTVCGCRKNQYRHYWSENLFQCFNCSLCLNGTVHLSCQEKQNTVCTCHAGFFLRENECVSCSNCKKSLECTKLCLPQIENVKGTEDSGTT
assay-protocol: yeast display SC50

[
  {
    "binder": "E44S (designed binder) MTLQELLREEALRRAEAEAFRYALELLAEKFPEQKEYLLDLAESIESQIRSLSGVDVEDVRKFLDKEWAWVKELLAEHPAELAEVEAARAARLAELRAEVEAKVAA",
    "apparent Kd (screen) [nM]": 13.8
  },
  {
    "binder": "L3G (designed binder) MTGQELLREEALRRAEAEAFRYALELLAEKFPEQKEYLLDLAEEIESQIRSLSGVDVEDVRKFLDKEWAWVKELLAEHPAELAEVEAARAARLAELRAEVEAKVAA",
    "apparent Kd (screen) [nM]": 20.2
  },
  {
    "binder": "D40I (designed binder) MTLQELLREEALRRAEAEAFRYALELLAEKFPEQKEYLLILAEEIESQIRSLSGVDVEDVRKFLDKEWAWVKELLAEHPAELAEVEAARAARLAELRAEVEAKVAA",
    "apparent Kd (screen) [nM]": 13.8
  },
  {
    "binder": "L74V (designed binder) MTLQELLREEALRRAEAEAFRYALELLAEKFPEQKEYLLDLAEEIESQIRSLSGVDVEDVRKFLDKEWAWVKEVLAEHPAELAEVEAARAARLAELRAEVEAKVAA",
    "apparent Kd (screen) [nM]": 2.48
  },
  {
    "binder": "S51C (designed binder) MTLQELLREEALRRAEAEAFRYALELLAEKFPEQKEYLLDLAEEIESQIRCLSGVDVEDVRKFLDKEWAWVKELLAEHPAELAEVEAARAARLAELRAEVEAKVAA",
    "apparent Kd (screen) [nM]": 1.05
  },
  {
    "binder": "A83F (designed binder) MTLQELLREEALRRAEAEAFRYALELLAEKFPEQKEYLLDLAEEIESQIRSLSGVDVEDVRKFLDKEWAWVKELLAEHPAELFEVEAARAARLAELRAEVEAKVAA",
    "apparent Kd (screen) [nM]": 0.593
  },
  {
    "binder": "F63T (designed binder) MTLQELLREEALRRAEAEAFRYALELLAEKFPEQKEYLLDLAEEIESQIRSLSGVDVEDVRKTLDKEWAWVKELLAEHPAELAEVEAARAARLAELRAEVEAKVAA",
    "apparent Kd (screen) [nM]": 0.869
  },
  {
    "binder": "L93K (designed binder) MTLQELLREEALRRAEAEAFRYALELLAEKFPEQKEYLLDLAEEIESQIRSLSGVDVEDVRKFLDKEWAWVKELLAEHPAELAEVEAARAARKAELRAEVEAKVAA",
    "apparent Kd (screen) [nM]": 0.718
  },
  {
    "binder": "I45V (designed binder) MTLQELLREEALRRAEAEAFRYALELLAEKFPEQKEYLLDLAEEVESQIRSLSGVDVEDVRKFLDKEWAWVKELLAEHPAELAEVEAARAARLAELRAEVEAKVAA",
    "apparent Kd (screen) [nM]": 0.593
  },
  {
    "binder": "E67G (designed binder) MTLQELLREEALRRAEAEAFRYALELLAEKFPEQKEYLLDLAEEIESQIRSLSGVDVEDVRKFLDKGWAWVKELLAEHPAELAEVEAARAARLAELRAEVEAKVAA",
    "apparent Kd (screen) [nM]": 13.8
  },
  {
    "binder": "A102C (designed binder) MTLQELLREEALRRAEAEAFRYALELLAEKFPEQKEYLLDLAEEIESQIRSLSGVDVEDVRKFLDKEWAWVKELLAEHPAELAEVEAARAARLAELRAEVECKVAA",
    "apparent Kd (screen) [nM]": 0.539
  },
  {
    "binder": "A76P (designed binder) MTLQELLREEALRRAEAEAFRYALELLAEKFPEQKEYLLDLAEEIESQIRSLSGVDVEDVRKFLDKEWAWVKELLPEHPAELAEVEAARAARLAELRAEVEAKVAA",
    "apparent Kd (screen) [nM]": 2.05
  }
]
